- TARGET_OF_ASSAY: Cytochrome b-245 heavy chain (Homo sapiens)
- Sequence (P04839 whole entry): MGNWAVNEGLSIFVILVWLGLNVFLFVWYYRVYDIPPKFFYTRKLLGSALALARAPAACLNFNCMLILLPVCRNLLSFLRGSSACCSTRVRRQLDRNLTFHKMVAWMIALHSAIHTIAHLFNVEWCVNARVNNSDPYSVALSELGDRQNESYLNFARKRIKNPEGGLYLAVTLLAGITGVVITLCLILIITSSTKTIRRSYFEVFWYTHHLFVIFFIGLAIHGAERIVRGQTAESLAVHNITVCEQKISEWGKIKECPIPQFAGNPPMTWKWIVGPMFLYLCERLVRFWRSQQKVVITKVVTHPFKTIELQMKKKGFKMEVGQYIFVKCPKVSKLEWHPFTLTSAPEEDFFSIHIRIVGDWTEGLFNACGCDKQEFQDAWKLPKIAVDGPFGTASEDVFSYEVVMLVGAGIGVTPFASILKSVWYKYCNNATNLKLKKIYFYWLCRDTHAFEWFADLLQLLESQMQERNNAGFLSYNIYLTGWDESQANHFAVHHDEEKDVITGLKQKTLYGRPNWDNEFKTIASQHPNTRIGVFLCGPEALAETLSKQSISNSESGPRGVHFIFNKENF
- ASSAY_INFO: PubChem AID 435013
Entries and their measured IC50 follow.

[
  {
    "COMPOUND_STRUCTURE_STRING": "Oc1c(Br)cc(CN=Nc2c(Cl)cncc2Cl)cc1Br",
    "TARGET_OF_ASSAY": "Cytochrome b-245 heavy chain (Homo sapiens)",
    "IC50": "> 50 µM"
  },
  {
    "COMPOUND_STRUCTURE_STRING": "CN(C)c1ccc(CN=Nc2c(Cl)cncc2Cl)cc1",
    "TARGET_OF_ASSAY": "Cytochrome b-245 heavy chain (Homo sapiens)",
    "IC50": "> 10 µM"
  }
]
